Cited source: ChEMBL document CHEMBL5230099

# experimentDescription: Antioxidant activity by ORAC-FL method
# Format: functional
# Parameters: reference not given here
Here, each record is paired with measured Activity data.
valueType: Activity (µmol)

INSERT INTO measurements (compoundstructurestring, unittag, resultvalue) VALUES
  ('O=c1c2cccc(Cl)c2[se]n1-c1ccc2cccc(O)c2n1', 'µmol', 0.9),
  ('O=c1c2cccc(F)c2[se]n1-c1ccc2cccc(O)c2n1', 'µmol', 3.6),
  ('O=c1c2c(F)cccc2[se]n1-c1ccc2cccc(O)c2n1', 'µmol', 2.3),
  ('O=c1c2c(C(F)(F)F)cccc2[se]n1-c1ccc2cccc(O)c2n1', 'µmol', 0.2),
  ('O=c1c2cccc(C(F)(F)F)c2[se]n1-c1ccc2cccc(O)c2n1', 'µmol', 0.3);
